Value source: PubChem BioAssay AID2060902

Listed below: viability, T/C values for each entry.
System: 485368-065-R3-J5-PDC spheroids with HUVEC/MSC, viability;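 note: spheroids exposed to agents for seven days before readout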
ASSAY OVERVIEW: Anticancer human tumor 485368-065-R3-J5-PDC patient-derived pancreatic carcinoma cell line growth inhibition [RAS]
CONDITION CONTEXT: compound 0.01 µM; active compounds read low
Excerpt: RAS pathway inhibitors in Combinations in Complex Spheroids A high-throughput screen of multi-cell type tumor spheroids was designed to identify active combinations of RAS pathway inhibitors and targeted small molecules. Complex spheroids include a stromal component modeled by human endothelial cells (HUVEC) and fibroblasts modeled by human mesenchymal stem cells (MSCs). […] Compounds. […] If the clinical Cmax for an agent had not been determined, the highest concentration tested was 10 microM. […]
PROPERTY LABEL: viability, T/C

> print(dat)
                                   compound  property.label                    result
1  Nc1ccn(C2OC(CO)C(O)C2(F)F)c(=O)n1 (stereo unspecified)  viability, T/C  29.2% [middle of 4 runs]
2  O=C(c1ccc(F)c(F)c1Nc1ccc(I)cc1F)N1CC(O)([C@@H]2CCCCN2)C1  viability, T/C  69.2% [middle of 4 runs]
3  CC(C)n1nc(-c2ccc3oc(N)nc3c2)c2c(N)ncnc21  viability, T/C  65.8% [middle of 4 runs]
4  C=CC(=O)Nc1cc(Nc2nccc(-c3cn(C)c4ccccc34)n2)c(OC)cc1N(C)CCN(C)C  viability, T/C  94.1% [middle of 4 runs]
5  CCN1CCN(Cc2ccc(Nc3ncc(F)c(-c4cc(F)c5nc(C)n(C(C)C)c5c4)n3)nc2)CC1  viability, T/C  91.6% [middle of 4 runs]
6  C=CC(=O)N1CCN(c2nc(OCC3CCCN3C)nc3c(F)c(-c4nc(N)cc(C)c4C(F)(F)F)c(Cl)cc23)C(C)C1 (stereo unspecified)  viability, T/C  104% [middle of 12 runs]
